# Species on record: Homo sapiens
# test.description: Selectivity index, ratio of IC50 for human CYP1A2 to IC50 for human CYP1B1
Tag: class 1 if measured Ratio IC50 is not below 10, class 0 if it is.

# smiles.text, qualitative.label
measured = [
    ("COc1ccc(OC)c2c1c(OC)cc1c(=O)cc(-c3ccccc3)oc12", "class 1"),
    ("COc1ccc(OC)c2c1c(OC)cc1c(=O)cc(-c3cccc(Cl)c3)oc12", "class 1"),
    ("COc1ccccc1-c1cc(=O)c2cc(OC)c3c(OC)ccc(OC)c3c2o1", "class 0"),
    ("COc1ccc(OC)c2c1c(OC)cc1c(=O)c(OCCOC(=O)[C@H](C)N)c(-c3cccc(F)c3)oc12", "class 0"),
    ("COc1ccc(OC)c2c1c(OC)cc1c(=O)cc(-c3ccc(F)cc3)oc12", "class 1"),
    ("COc1ccc(OC)c2c1c(OC)cc1c(=O)c(O)c(-c3ccccc3F)oc12", "class 1"),
    ("COc1ccc(OC)c2c1c(OC)cc1c(=O)cc(-c3ccc(OCc4ccccc4)cc3)oc12", "class 0"),
    ("COc1ccc(OC)c2c1c(OC)cc1c(=O)cc(-c3ccccc3Cl)oc12", "class 1"),
    ("COc1ccc(-c2cc(=O)c3cc(OC)c4c(OC)ccc(OC)c4c3o2)cc1OC", "class 0"),
    ("COc1ccc(OC)c2c1c(OC)cc1c(=O)c(O)c(-c3ccc(F)cc3)oc12", "class 1"),
    ("COc1ccc(OC)c2c1c(OC)cc1c(=O)c(O)c(-c3cccc(Cl)c3)oc12", "class 1"),
    ("COc1ccc(-c2cc(=O)c3cc(OC)c4c(OC)ccc(OC)c4c3o2)cc1", "class 1"),
    ("COc1ccc(OC)c2c1c(OC)cc1c(=O)cc(-c3cccc(F)c3)oc12", "class 1"),
    ("COc1ccc(OC)c2c1c(OC)cc1c(=O)c(OCCCCCCOC(=O)CN)c(-c3cccc(F)c3)oc12", "class 0"),
    ("COc1ccc(OC)c2c1c(OC)cc1c(=O)cc(-c3ccc(Cl)cc3)oc12", "class 1"),
    ("COc1cc(-c2cc(=O)c3cc(OC)c4c(OC)ccc(OC)c4c3o2)cc(OC)c1OC", "class 0"),
    ("COc1ccc(OC)c2c1c(OC)cc1c(=O)c(O)c(-c3ccccc3)oc12", "class 1"),
    ("COc1ccc(OC)c2c1c(OC)cc1c(=O)cc(-c3ccccc3F)oc12", "class 1"),
    ("COc1ccc(OC)c2c1c(OC)cc1c(=O)cc(-c3ccc(O)cc3)oc12", "class 0"),
    ("COc1ccc(OC)c2c1c(OC)cc1c(=O)c(OCCOC(=O)CN)c(-c3cccc(F)c3)oc12", "class 0"),
]

meta.source: ChEMBL document CHEMBL3421595
